TGI listing for selected molecules.
Tested on: LOX IMVI melanoma
Assay: NCI tumour cell line growth inhibition, 48 h

Sample records with TGI:
{"MOLECULE": "COc1cc2nc(-c3cccs3)oc(=O)c2cc1OC", "TGI": "> 100 µM"}
{"MOLECULE": "CC(C)CCC[C@@H](C)C1CCC2[C@@H]3CC=C4C[C@@H](C(=O)NCCN(C)C)CC[C@]4(C)C3CC[C@@]21C (stereo not given in full)", "TGI": "> 100 µM"}
{"MOLECULE": "COC(=O)C(=O)C(C(C)=O)C(=O)NCc1ccc(OC)c(OC)c1 (stereo not given)", "TGI": "> 100 µM"}
{"MOLECULE": "Cc1ccc(CC[P+](=O)CCc2ccc(C)nc2)cn1", "TGI": "> 100 µM"}
{"MOLECULE": "CCC(C)(O)c1cnc(CC(C)C)c(=O)n1O (stereo not given)", "TGI": "> 100 µM"}
{"MOLECULE": "NCCNCC1CCNCC1", "TGI": "> 100 µM"}

The measured TGI associated with CCc1c[n+]([O-])c(C)cc1[N+](=O)[O-] reads > 100 µM

The measured TGI associated with Cc1ccc(OCCOCCOCCOCCOc2ccc(C)n(O)c2=S)c(=S)n1O reads > 69.6 µM

The measured TGI associated with Cc1cc(Nc2nc(-c3cn(-c4ccc(Cl)cc4)nn3)nc3ccccc23)n[nH]1 reads > 50 µM

The measured TGI associated with COc1cc2cc(Oc3ccc(NC(=O)c4cc(C(F)(F)F)cc(C(F)(F)F)c4)cc3)c(C)nc2cc1OC reads > 50 µM

---

TGI listing for selected compounds.
Tested on: EKVX NSCLC
Assay: NCI tumour cell line growth inhibition, 48 h

Sample records with TGI:
{"COMPOUND": "CC1CN=C(N(C(=O)Nc2ccc(F)c(Cl)c2)c2ccccc2)S1 (stereo not given)", "RESULT": "62.4 µM"}
{"COMPOUND": "COc1ccc(/C=C2\\C[C@H]3[C@@H]4CCC5=C/C(=N/O)CC[C@]5(C)[C@H]4CC[C@]3(C)\\C2=N\\O)cc1OC", "RESULT": "32 µM"}
{"COMPOUND": "CC(C)CCC[C@@H](C)C1CCC2[C@@H]3CC=C4C[C@@H](C(=O)NCCN(C)C)CC[C@]4(C)C3CC[C@@]21C (stereo not given in full)", "RESULT": "> 100 µM"}

The measured TGI associated with S=c1[nH]c2ccc(Br)cc2c(=S)s1 reads 91.3 µM

The measured TGI associated with Cc1ccc(C)c(N2C/C(=N\NC(=O)CC#N)C(c3nc4ccccc4s3)C(=O)C2=O)c1 (stereo not given) reads > 100 µM

---

TGI listing for selected compounds.
System: OVCAR-8 ovarian
Assay: NCI tumour cell line growth inhibition, 48 h

The measured TGI associated with CCOC(=O)NC(=O)c1cn(C(CC)COC(=O)NCCCCCCNC(=O)OCC(CC)n2cc(C(=O)NC(=O)OCC)c(=O)[nH]c2=O)c(=O)[nH]c1=O (stereo unspecified) reads > 100 µM

The measured TGI associated with COc1c(C)n(CCO)ccc1=O reads > 100 µM

The measured TGI associated with COc1cc2c(cc1O)CCN[C@]21CS[C@@H]2c3c(OC(C)=O)c(C)c4c(c3[C@H](COC1=O)N1[C@@H]2[C@H]2c3c(cc(C)c(OC)c3O)C[C@@H]([C@@H]1O)N2C)OCO4 reads 4.83 µM

The measured TGI associated with O=C(/C(=C\c1c(-c2ccccc2)[nH]c2ccccc12)S(=O)(=O)c1ccccc1)c1ccccc1 reads > 100 µM

The measured TGI associated with O=C(CN(c1ccccc1)c1ccccc1)N1c2ccccc2C2C=CC=CC21 (stereo unspecified) reads 53.5 µM

The measured TGI associated with Nc1cc(Br)c(-c2nnc(CCC(=O)c3nc4ccccc4[nH]3)o2)c(Br)c1 reads > 100 µM

The measured TGI associated with C[C@@H](Cl)[C@H]1CCCN(Cc2ccc(Br)cc2)C1 reads > 12.5 µM

The measured TGI associated with CC(C(=O)N1C(=O)N(C(=O)C(C)C(O)c2ccccc2)C2CCCCC21)C(O)c1ccccc1 (stereo unspecified) reads > 100 µM

The measured TGI associated with CCCC/C(=C\C1=C(C)C(=O)C(OC)=C(OC)C1=O)C(=O)O reads > 100 µM

The measured TGI associated with COc1nc2ncc([C@@H](OC(C)=O)[C@@H](COC(C)=O)OC(C)=O)nc2c(=O)[nH]1 reads > 100 µM

The measured TGI associated with CSc1c(C#N)c(N)n(-c2ccc(C)cc2)c(=O)c1C#N reads > 100 µM

---

System: UACC-62 melanoma
Assay: NCI tumour cell line growth inhibition, 48 h
TGI listing for selected compounds.

Sample records with TGI:
{"COMPOUND": "CCOC(=O)NC(=O)c1cn(C(CC)COC(=O)NCCCCCCNC(=O)OCC(CC)n2cc(C(=O)NC(=O)OCC)c(=O)[nH]c2=O)c(=O)[nH]c1=O (stereo not drawn)", "TARGET_SYSTEM": "UACC-62 melanoma", "TGI": "> 100 µM"}
{"COMPOUND": "CCNC(=O)/C(=C/c1ccc(OC)cc1)c1cc(OC)c(OC)c(OC)c1", "TARGET_SYSTEM": "UACC-62 melanoma", "TGI": "> 100 µM"}

// switching to the query compound
The measured TGI associated with O=C(O)C(SC1=NNC2(C(=O)N1)c1ccccc1-c1ccccc12)SC1=NNC2(C(=O)N1)c1ccccc1-c1ccccc12 reads > 10 µM

---

TGI listing for selected compounds.
Tested on: M19-MEL melanoma
Assay: NCI tumour cell line growth inhibition, 48 h
Respond numerically; units are µM and should not be typed.

{"MOLECULE_SMILES": "Nc1ccccc1C(=O)/C=C/c1c(O)ccc2ccccc12", "TARGET_SYSTEM": "M19-MEL melanoma", "TGI / µM": 43.4}
{"MOLECULE_SMILES": "Nc1c(-c2ccccc2-c2c(N)[n+]([O-])c3ccccc3[n+]2[O-])[n+]([O-])c2ccccc2[n+]1[O-]", "TARGET_SYSTEM": "M19-MEL melanoma", "TGI / µM": 60.3}
{"MOLECULE_SMILES": "NC(=O)C(=O)CC(=O)c1ccccc1NC1=CC(=O)C(=O)c2ccccc21", "TARGET_SYSTEM": "M19-MEL melanoma", "TGI / µM": 22.8}

// switching to the query compound
The measured TGI associated with CCN1c2ccccc2-c2c3c1cc(C)cc3c1ccccc1[n+]2CC reads 1.27

---

System: IGROV1 ovarian
Test: NCI tumour cell line growth inhibition, 48 h
TGI listing for selected compounds.

Sample records with TGI:
{"COMPOUND": "CSC(=Nc1ccccc1)N(c1ccccc1)c1nc(=[N+](C)C)ss1", "READOUT_KIND": "TGI", "RESULT": "12.8 µM"}
{"COMPOUND": "CC(=O)OCC1OC(n2cc(I)c(=O)[nH]c2=O)C(OC(C)=O)C(OC(C)=O)C1OC(C)=O (stereo unspecified)", "READOUT_KIND": "TGI", "RESULT": "> 100 µM"}
{"COMPOUND": "CC(C)c1[nH]nc2c1N=C(c1ccccc1Cl)c1cc([N+](=O)[O-])ccc1N2", "READOUT_KIND": "TGI", "RESULT": "24.4 µM"}
{"COMPOUND": "O=[N+]([O-])c1cccc(C2=NOC(C3CCCCC3)C2)c1 (stereo unspecified)", "READOUT_KIND": "TGI", "RESULT": "> 100 µM"}
{"COMPOUND": "COc1cc2c(/C=N\\N=C(N)N)c[nH]c2cc1C", "READOUT_KIND": "TGI", "RESULT": "> 100 µM"}

// switching to the query compound
The measured TGI associated with Oc1[nH]c2ccc(Br)cc2c1N=NC(=S)Nc1ccc(F)cc1 reads 23.2 µM

---

TGI listing for selected molecules.
System: HT29 colon
Assay: NCI tumour cell line growth inhibition, 48 h

Sample records with TGI:
{"MOLECULE": "O=C(Nc1cc(Cl)ccc1O)c1ccc(Nc2ccnc(C(F)(F)F)c2)cc1", "READOUT_KIND": "TGI", "RESULT": "> 100 µM"}
{"MOLECULE": "COc1ccc(CC2c3c(cc(OC)c(OC)c3OC)CCN2C)cc1OC (configuration not stated)", "READOUT_KIND": "TGI", "RESULT": "> 100 µM"}

The measured TGI associated with COC(=O)C1C(O)C(C(=O)OC)C(C)N(C)C1C (configuration not stated) reads > 100 µM

The measured TGI associated with CCOC(=O)C1(C(=O)OCC)COS(=O)OC1 reads > 100 µM

The measured TGI associated with N#CCc1nc(-c2ccccc2)n[nH]1 reads > 100 µM

The measured TGI associated with O=C(CC(=O)C1CCOC1=O)C(=O)Nc1cccc(Cl)c1 (configuration not stated) reads > 100 µM

The measured TGI associated with CCN(CC)CCCCCCNc1cccc2cc(Br)cnc12 reads 4.32 µM

The measured TGI associated with CCOC(CNCCC(=O)OC)OCC reads > 10 µM

The measured TGI associated with Nc1c(-c2ccccc2-c2c(N)[n+]([O-])c3ccccc3[n+]2[O-])[n+]([O-])c2ccccc2[n+]1[O-] reads > 100 µM

The measured TGI associated with CC1CN=C(N(C(=O)Nc2ccc(F)c(Cl)c2)c2ccccc2)S1 (configuration not stated) reads 58 µM

The measured TGI associated with COc1cccc(/C=N/[N-]C(=O)c2ccncc2)c1[O-].COc1cccc(/C=N/[N-]C(=O)c2ccncc2)c1[O-].[O]=[U](=[O])([OH2+])[OH2+] reads > 100 µM

The measured TGI associated with CC(C(=O)c1ccc(Cl)cc1)/C(=N/NC(=O)NN)C(=O)Nc1cccc(C(F)(F)F)c1 (configuration not stated) reads > 100 µM

The measured TGI associated with N#CC(N=Nc1ccc(Cl)cc1)c1nc2ccccc2o1 (configuration not stated) reads > 100 µM

The measured TGI associated with CCCCCCCCCCNC(=O)CI reads 3.76 µM

The measured TGI associated with COc1ccc(C(=O)c2cc(OC)c(OC)c(OC)c2)cc1OC reads 9.75 µM

The measured TGI associated with ClC(Cl)=C1C(=C(Cl)Cl)C(Cl)(Cl)C1(Cl)Cl reads 7.85 µM

The measured TGI associated with Cc1cc2c(c(C(N)=O)c1C)-c1ccccc1C2=O reads > 100 µM

The measured TGI associated with C[C@@H](Cl)[C@H]1CCCN(Cc2ccc(Br)cc2)C1 reads > 12.5 µM

The measured TGI associated with CN(C)CCNCCN reads > 100 µM

The measured TGI associated with CC(C)(C)c1ccc2c(c1)S(=O)(=O)Nc1ccc(Cl)cc1NS(=O)(=O)c1cc(C(C)(C)C)ccc1OCCOCCOCCO2 reads > 100 µM

The measured TGI associated with COc1cc2c(Nc3cc(Cl)c(OC)c(Cl)c3)c(C#N)cnc2cc1OCCCN1CCN(C)CC1 reads 3.25 µM

Data credit: PubChem BioAssay (NCI)
